system: HT29 colon; test: NCI-60 one-dose screen, 48 h (100 = growth as untreated, 0 = no growth, -100 = all killed); settings: 10 µM unless noted
This is part of a sample that, as a whole, favours compounds with a hit. Of some 83,000 tested, about 20% had one in any assay.
RECORDED ENDPOINT: growth (%)
I only need the number, in %, no unit after it.

Study these solved cases before continuing.
[[record]]
compound_string = "CCn1cc(C(=O)O)c(=O)c2cc(F)c(N3CCN(S(=O)(=O)c4ccc(Cl)cc4)CC3)cc21"
units_label = "%"
measured_value = 7.87

[[record]]
compound_string = "Cc1nc(NC(=O)NC2CCCCC2)sc1C(=O)NN"
units_label = "%"
measured_value = 95.5

[[record]]
compound_string = "O=C(NCCNCCO)c1cc([N+](=O)[O-])cc([N+](=O)[O-])c1O"
units_label = "%"
measured_value = 104

[[record]]
compound_string = "COc1ccc(-c2nc(Nc3nc4ccccc4[nH]3)nc(N)c2C#N)cc1"
units_label = "%"
measured_value = 96


Note: attention shifts to another entry.
Entry "COC(=O)c1ccc2[nH]c(O)c(C(=Nc3ccc(N(C)C(=O)CN4CCN(C)CC4)cc3)c3ccc(OC)cc3)c2c1" : reported growth = ?
20
